Target: human Nav1.6 (Homo sapiens)
Construct: HEK-293 cell lines stably expressing human Nav1.6 (NP_055006) were used; expressed in transfected cells
Sequence (Q9UQD0 whole entry): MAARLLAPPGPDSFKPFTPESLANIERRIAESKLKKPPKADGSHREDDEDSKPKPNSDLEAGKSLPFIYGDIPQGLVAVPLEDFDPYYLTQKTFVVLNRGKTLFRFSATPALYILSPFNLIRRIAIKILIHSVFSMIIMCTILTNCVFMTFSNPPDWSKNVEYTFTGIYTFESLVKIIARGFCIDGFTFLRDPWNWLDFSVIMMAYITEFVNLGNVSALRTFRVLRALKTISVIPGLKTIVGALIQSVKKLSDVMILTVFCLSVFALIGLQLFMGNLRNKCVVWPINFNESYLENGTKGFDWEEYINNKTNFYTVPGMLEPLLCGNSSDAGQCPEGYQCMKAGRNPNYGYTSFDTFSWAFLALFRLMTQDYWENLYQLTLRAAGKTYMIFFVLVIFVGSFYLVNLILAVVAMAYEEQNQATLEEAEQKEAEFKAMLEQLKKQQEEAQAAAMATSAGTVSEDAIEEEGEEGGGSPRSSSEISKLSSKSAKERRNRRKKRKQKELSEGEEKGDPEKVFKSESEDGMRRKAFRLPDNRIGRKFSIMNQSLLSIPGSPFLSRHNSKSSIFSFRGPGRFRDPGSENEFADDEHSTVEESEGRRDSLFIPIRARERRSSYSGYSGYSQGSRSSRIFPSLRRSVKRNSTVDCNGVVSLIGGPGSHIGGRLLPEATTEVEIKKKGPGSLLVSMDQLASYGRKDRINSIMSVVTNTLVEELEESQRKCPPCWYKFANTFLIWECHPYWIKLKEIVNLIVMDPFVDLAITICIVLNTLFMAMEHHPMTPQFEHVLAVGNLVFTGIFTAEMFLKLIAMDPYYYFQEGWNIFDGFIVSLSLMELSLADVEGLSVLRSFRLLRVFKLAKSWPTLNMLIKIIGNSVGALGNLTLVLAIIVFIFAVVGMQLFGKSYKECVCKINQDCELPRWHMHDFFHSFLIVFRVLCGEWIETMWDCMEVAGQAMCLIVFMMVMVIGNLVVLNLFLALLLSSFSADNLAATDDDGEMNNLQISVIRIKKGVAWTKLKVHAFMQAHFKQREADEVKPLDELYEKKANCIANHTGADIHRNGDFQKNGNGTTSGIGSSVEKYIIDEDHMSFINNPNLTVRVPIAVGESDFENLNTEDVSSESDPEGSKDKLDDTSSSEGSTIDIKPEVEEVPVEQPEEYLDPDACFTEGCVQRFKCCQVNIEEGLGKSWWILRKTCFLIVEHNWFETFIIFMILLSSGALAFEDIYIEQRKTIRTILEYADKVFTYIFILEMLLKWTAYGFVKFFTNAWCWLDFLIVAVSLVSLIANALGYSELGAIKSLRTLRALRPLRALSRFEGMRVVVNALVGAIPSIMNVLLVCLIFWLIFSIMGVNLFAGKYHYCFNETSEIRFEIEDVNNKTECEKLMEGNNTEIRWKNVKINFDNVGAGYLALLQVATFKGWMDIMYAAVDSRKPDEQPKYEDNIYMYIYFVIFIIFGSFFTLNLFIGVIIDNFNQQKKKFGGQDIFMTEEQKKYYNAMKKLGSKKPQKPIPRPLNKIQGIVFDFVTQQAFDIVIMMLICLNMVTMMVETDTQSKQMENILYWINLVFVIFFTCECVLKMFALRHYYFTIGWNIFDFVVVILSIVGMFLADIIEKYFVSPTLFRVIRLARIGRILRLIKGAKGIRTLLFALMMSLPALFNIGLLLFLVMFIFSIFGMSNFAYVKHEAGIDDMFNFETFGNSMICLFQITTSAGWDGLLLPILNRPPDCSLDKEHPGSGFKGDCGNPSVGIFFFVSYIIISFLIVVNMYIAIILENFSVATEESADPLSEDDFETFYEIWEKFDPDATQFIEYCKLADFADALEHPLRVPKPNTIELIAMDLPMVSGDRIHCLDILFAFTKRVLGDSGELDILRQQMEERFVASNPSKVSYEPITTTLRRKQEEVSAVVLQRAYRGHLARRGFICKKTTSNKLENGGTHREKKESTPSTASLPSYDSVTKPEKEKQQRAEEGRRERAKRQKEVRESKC
Test: Peak INa use-dependent block (UDB-10 Hz), automated patch clamp in HEK cells
Assay type: cell-based
Collected Peak INa UDB-10 Hz Ratio to Pers. INa values appear next to each entry.
// return just the number, without any unit appended

Take a look at these entries with their results.
compound="NC(=O)O[C@@H](Cn1ncnn1)c1ccccc1Cl [Cenobamate, cenobamate]" target_under_test="human Nav1.6 (Homo sapiens)" endpoint_result=11
compound="NC(=O)N1c2ccccc2C=Cc2ccccc21 [Carbamazepine, carbamazepine]" target_under_test="human Nav1.6 (Homo sapiens)" endpoint_result=18
compound="O=C1NC(=O)C(c2ccccc2)(c2ccccc2)N1 [Phenytoin, phenytoin]" target_under_test="human Nav1.6 (Homo sapiens)" endpoint_result=15

Continue with the compound presented below.
Query :: Requested read-out: Peak INa UDB-10 Hz Ratio to Pers. INa. Entry: COC[C@@H](NC(C)=O)C(=O)NCc1ccccc1 [Lacosamide, lacosamide]
Result :: 0.8

These entries and their values trace back to patent US20250288570A1.
